- System: BHK
- ASSAY_NOTES: Inhibition of intracellular HCV NS5B RNA dependent RNA polymerase activity expressed in BHK cells at 100 uM after 42 hrs by renilla luciferase reporter gene assay
- Format: cell-based
- PROTOCOL_CONDITIONS: Hepacivirus hominis
METRIC: inhibition

// query Give me measured inhibition, please, for this compound: `C/C(=N\Nc1ncnc2ccccc12)C(=O)O`
// result 62.4%

// query Give me measured inhibition, please, for this compound: `O=C(O)c1ccc(Nc2nnc(-c3ccccc3)c(=O)[nH]2)cc1O`
// result 45.1%

// query Give me measured inhibition, please, for this compound: CC1CS(=O)(=O)N(c2ccc(S(=O)(=O)Nc3cccc4cccnc34)cc2)C1=O (stereo not drawn)
// result 40.5%

// query Give me measured inhibition, please, for this compound: `COc1cc(/C=N/Nc2ccccc2C(=O)O)cc(Br)c1O`
// result 57.8%

// query Give me measured inhibition, please, for this compound: `Cn1cc(C(=O)N2CCN(C(=O)c3ccc(F)cc3F)CC2)c2nn(-c3ccccc3)c(=O)c-2c1`
// result 43.3%

// query Give me measured inhibition, please, for this compound: `CCOC(=O)/C(C#N)=C\c1cn(CCC(=O)O)nc1-c1ccc(F)cc1`
// result 44.2%

We next turn to a different compound, shown below.
// query Give me measured inhibition, please, for this compound: `O=C(CCS(=O)(=O)c1ccccc1)N1CCN(C(=O)CCS(=O)(=O)c2ccccc2)CC1`
// result 42.1%

* * *

- System: Hepatitis C virus
- ASSAY_NOTES: Inhibition of recombinant HCV1b NS5B Cdelta21 RNA dependent RNA polymerase M423T mutant TP2 binding site using poly rA/U12 template primer by liquid scintillation counting
- Set-up: species or system Hepatitis C virus subtype 1b
METRIC: IC50

// query Give me measured IC50, please, for this molecule: `COc1cc(/C=N/Nc2ccccc2C(=O)O)cc(Br)c1O`
// result 172 µM

// query Give me measured IC50, please, for this molecule: CC1CS(=O)(=O)N(c2ccc(S(=O)(=O)Nc3cccc4cccnc34)cc2)C1=O (stereo not drawn)
// result > 250 µM

// query Give me measured IC50, please, for this molecule: `Cn1cc(C(=O)N2CCN(C(=O)c3ccc(F)cc3F)CC2)c2nn(-c3ccccc3)c(=O)c-2c1`
// result > 250 µM

// query Give me measured IC50, please, for this molecule: `CCOC(=O)/C(C#N)=C\c1cn(CCC(=O)O)nc1-c1ccc(F)cc1`
// result > 250 µM

For the 4 molecules below, give their IC50 values.
1. Cc1cc(O)c(C(c2ccc(Cl)c(Cl)c2)c2c(O)cc(C)oc2=O)c(=O)o1
2. O=C(CCS(=O)(=O)c1ccccc1)N1CCN(C(=O)CCS(=O)(=O)c2ccccc2)CC1
3. C/C(=N\Nc1ncnc2ccccc12)C(=O)O
4. O=C(O)c1ccc(Nc2nnc(-c3ccccc3)c(=O)[nH]2)cc1O

// result
> 250 µM
> 250 µM
127 µM
> 250 µM

* * *

- System: Hepatitis C virus
- ASSAY_NOTES: Ratio of IC50 for recombinant HCV1b NS5B Cdelta21 RNA dependent RNA polymerase P495L mutant TP1 binding site to IC50 for wild type recombinant C terminal His6-tagged HCV1b NS5B Cdelta21 RNA dependent RNA polymerase
- Parameters: species or system Hepatitis C virus subtype 1b
METRIC: Ratio IC50

// query Give me measured Ratio IC50, please, for this molecule: `COc1cc(/C=N/Nc2ccccc2C(=O)O)cc(Br)c1O`
// result <=1.4

// query Give me measured Ratio IC50, please, for this molecule: `Cc1cc(O)c(C(c2ccc(Cl)c(Cl)c2)c2c(O)cc(C)oc2=O)c(=O)o1`
// result <=1.4

// query Give me measured Ratio IC50, please, for this molecule: `O=C(CCS(=O)(=O)c1ccccc1)N1CCN(C(=O)CCS(=O)(=O)c2ccccc2)CC1`
// result <=1.4

* * *

- ASSAY_NOTES: Cytotoxicity against BHK cells assessed as cell viability by firefly luciferase reporter gene assay
- Format: cell-based, Mesocricetus auratus
- PROTOCOL_CONDITIONS: hamster
Give measured CC50 for each item. Keep answers brief.

// query Give me measured CC50, please, for this molecule: `O=C(O)c1ccc(Nc2nnc(-c3ccccc3)c(=O)[nH]2)cc1O`
// result > 100 µM

// query Give me measured CC50, please, for this molecule: `C/C(=N\Nc1ncnc2ccccc12)C(=O)O`
// result > 100 µM

// query Give me measured CC50, please, for this molecule: `Cc1cc(O)c(C(c2ccc(Cl)c(Cl)c2)c2c(O)cc(C)oc2=O)c(=O)o1`
// result > 100 µM

// query Give me measured CC50, please, for this molecule: CC1CS(=O)(=O)N(c2ccc(S(=O)(=O)Nc3cccc4cccnc34)cc2)C1=O (stereo not drawn)
// result > 100 µM

For the 3 molecules below, give their CC50 values.
1. O=C(CCS(=O)(=O)c1ccccc1)N1CCN(C(=O)CCS(=O)(=O)c2ccccc2)CC1
2. CCOC(=O)/C(C#N)=C\c1cn(CCC(=O)O)nc1-c1ccc(F)cc1
3. Cn1cc(C(=O)N2CCN(C(=O)c3ccc(F)cc3F)CC2)c2nn(-c3ccccc3)c(=O)c-2c1

// result
> 100 µM
> 100 µM
> 100 µM

// query Give me measured CC50, please, for this molecule: `COc1cc(/C=N/Nc2ccccc2C(=O)O)cc(Br)c1O`
// result > 100 µM
